STUDY_TARGET: CSF1R (human)
ASSAY_NAME: KINOMEscan competition binding
CONDITION_DETAILS: compound 10.0 µM
MEASURE: kinase still bound, per cent of control

CCOc1cc2ncc(C#N)c(Nc3ccc(OCc4ccccn4)c(Cl)c3)c2cc1NC(=O)/C=C/CN(C)C ... 68%
C=CC(=O)Nc1cccc(Nc2nc(N[C@H]3CC[C@H](N(C)C)CC3)nc3c2ncn3C(C)C)c1 ... 52%
CC[C@@H]1C(=O)N(C)c2cnc(Nc3ccc(C(=O)NC4CCN(C)CC4)cc3OC)nc2N1C1CCCC1 ... 100%
O=C1Nc2ccc(I)cc2/C1=C/c1cc(Br)c(O)c(Br)c1 ... 71%
O=C(O)c1ccc(Nc2ncc3c(n2)-c2ccc(Cl)cc2C(c2c(F)cccc2F)=NC3)cc1 ... 38%
Cc1ccc2nc(NCCN)c3ncc(C)n3c2c1 ... 16%

Below are some compounds; for each one, tell me its kinase still bound, per cent of control.
1. CCCS(=O)(=O)Nc1ccc(F)c(C(=O)c2c[nH]c3ncc(-c4ccc(Cl)cc4)cc23)c1F
2. CCN1CCN(Cc2ccc(Nc3ncc4c(n3)N(C)c3ccccc3C(=O)N4C)cc2C(F)(F)F)CC1
3. Cc1cc([C@@H](C)Nc2ccccc2C(=O)O)c2nc(N3CCOCC3)cc(=O)n2c1
4. CN(C)C/C=C/C(=O)Nc1cccc(Nc2ncc3c(n2)N(C)c2ccccc2C(=O)N3C)c1

1. 8%
2. 0.5%
3. 94%
4. 0.1%

---

STUDY_TARGET: DDR1 (human)
ASSAY_NAME: KINOMEscan competition binding
CONDITION_DETAILS: compound 10.0 µM
MEASURE: kinase still bound, per cent of control (%)
Answers are plain numbers, in %.

Recorded results for 6 compounds are shown here.
Cc1ccc(C(=O)Nc2cccc(C(F)(F)F)c2)cc1Nc1cncc(C(N)=O)c1 ... 0.1
COc1cc(C(=O)NC2CCN(C)CC2)ccc1Nc1ncc2c(n1)N(C1CCCC1)CCC(=O)N2C(C)C ... 100
O=C(NOC[C@H](O)CO)c1ccc(F)c(F)c1Nc1ccc(I)cc1F ... 50
C=CC(=O)Nc1cc(NC(=O)c2ccc(C)c(NC(=O)c3ccno3)c2)cc(C(F)(F)F)c1 ... 0.1
Cc1ccc2nc(NCCN)c3ncc(C)n3c2c1 ... 100
C=CC(=O)Nc1cccc(Nc2nc(N[C@H]3CC[C@H](N(C)C)CC3)nc3c2ncn3C(C)C)c1 ... 100

Below are some compounds; for each one, tell me its kinase still bound, per cent of control.
1. N#Cc1c(NC(=O)c2cccc3ccccc23)sc2c1CCCC2
2. CCN1CCN(Cc2ccc(Nc3ncc4c(n3)N(C)c3ccccc3C(=O)N4C)cc2C(F)(F)F)CC1
3. COc1cc(N2CCN(C)CC2)ccc1Nc1nc(N)c(C(=O)c2c(Cl)cccc2Cl)s1
4. O=C1Nc2ccc(I)cc2/C1=C/c1cc(Br)c(O)c(Br)c1

[71, 14, 98, 85]

---

I'd appreciate it if you could supply kinase still bound, per cent of control values for the items below.
STUDY_TARGET: UniProtKB Q6XUX3
Sequence (Q6XUX3 whole entry, looked up): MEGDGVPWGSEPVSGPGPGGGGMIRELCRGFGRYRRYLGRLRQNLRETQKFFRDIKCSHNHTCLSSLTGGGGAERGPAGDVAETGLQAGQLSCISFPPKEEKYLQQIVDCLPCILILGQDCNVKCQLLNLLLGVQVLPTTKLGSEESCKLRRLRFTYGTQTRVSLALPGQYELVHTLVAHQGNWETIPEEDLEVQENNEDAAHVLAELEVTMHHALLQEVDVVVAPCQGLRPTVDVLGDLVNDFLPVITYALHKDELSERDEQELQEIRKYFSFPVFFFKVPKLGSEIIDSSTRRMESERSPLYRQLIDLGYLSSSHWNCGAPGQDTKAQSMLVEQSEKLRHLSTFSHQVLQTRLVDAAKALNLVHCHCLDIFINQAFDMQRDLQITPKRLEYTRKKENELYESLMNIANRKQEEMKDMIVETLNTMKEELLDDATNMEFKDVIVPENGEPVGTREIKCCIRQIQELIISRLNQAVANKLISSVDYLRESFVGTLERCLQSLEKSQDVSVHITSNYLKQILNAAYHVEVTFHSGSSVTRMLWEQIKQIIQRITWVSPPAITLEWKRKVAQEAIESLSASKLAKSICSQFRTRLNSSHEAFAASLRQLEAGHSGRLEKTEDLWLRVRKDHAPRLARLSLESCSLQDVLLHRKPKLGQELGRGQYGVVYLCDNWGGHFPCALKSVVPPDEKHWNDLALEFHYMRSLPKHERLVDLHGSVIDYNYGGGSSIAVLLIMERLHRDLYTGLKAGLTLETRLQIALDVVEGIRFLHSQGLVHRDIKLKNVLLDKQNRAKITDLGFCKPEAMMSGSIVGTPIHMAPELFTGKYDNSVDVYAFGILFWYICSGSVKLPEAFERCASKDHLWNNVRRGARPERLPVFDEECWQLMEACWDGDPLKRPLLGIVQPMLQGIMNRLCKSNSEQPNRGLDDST
ASSAY_NAME: KINOMEscan competition binding
CONDITION_DETAILS: compound 10.0 µM
One number for each entry, in %.

Recorded results for 8 compounds are shown here.
N#Cc1c(NC(=O)c2cccc3ccccc23)sc2c1CCCC2 ... 100
Cc1ccc2nc(NCCN)c3ncc(C)n3c2c1 ... 100
O=C(NOC[C@H](O)CO)c1ccc(F)c(F)c1Nc1ccc(I)cc1F ... 100
O=C1Nc2ccc(I)cc2/C1=C/c1cc(Br)c(O)c(Br)c1 ... 66
COc1cc(N2CCN(C)CC2)ccc1Nc1nc(N)c(C(=O)c2c(Cl)cccc2Cl)s1 ... 52
CCC(=O)N1CCN(c2ccc(-n3c(=O)ccc4cnc5ccc(-c6cnc7ccccc7c6)cc5c43)cc2C(F)(F)F)CC1 ... 28
Cc1cc([C@@H](C)Nc2ccccc2C(=O)O)c2nc(N3CCOCC3)cc(=O)n2c1 ... 100
C=CC(=O)Nc1cccc(Nc2nc(N[C@H]3CC[C@H](N(C)C)CC3)nc3c2ncn3C(C)C)c1 ... 86

Continue with the compound presented below.
State its kinase still bound, per cent of control for this compound: C[C@@H](Oc1cc(-n2cnc3ccc(CN4CCN(C)CC4)cc32)sc1C(N)=O)c1ccccc1C(F)(F)F
34
